Experiment Notes: melting temperature; fluorescence melt of hairpins on a sequencing array, two-state fit, raised by 9.35 °C to match UV melts
Condition Summary: sodium 0.088 M
So basically, if Tm comes in under 50 °C it's satisfied, and if it's 50 °C or more it's not satisfied.

INSERT INTO assay_data (sequence_input, group) VALUES
  ('GCGTGTCCACGC ((((....))))', 'not satisfied'),
  ('GGCAGCGAAAGCTCGGCC ((((((....)))..)))', 'not satisfied'),
  ('GATTCCGGAAACGGAACC (.(((((....))))).)', 'satisfied'),
  ('GATCCGTACGCGGATC ((((((....))))))', 'not satisfied'),
  ('GGCACAGGAAACTGTGTC (.(((((....))))).)', 'not satisfied'),
  ('GGTCTCGGAAACGAGGTC (..((((....))))..)', 'satisfied');
